# targetOrTestSystem: MMP-2 (Homo sapiens)
# Construct: made in house; provided by Dr. Gregory Goldberg, Washington University
# Sequence (P08253 110-660): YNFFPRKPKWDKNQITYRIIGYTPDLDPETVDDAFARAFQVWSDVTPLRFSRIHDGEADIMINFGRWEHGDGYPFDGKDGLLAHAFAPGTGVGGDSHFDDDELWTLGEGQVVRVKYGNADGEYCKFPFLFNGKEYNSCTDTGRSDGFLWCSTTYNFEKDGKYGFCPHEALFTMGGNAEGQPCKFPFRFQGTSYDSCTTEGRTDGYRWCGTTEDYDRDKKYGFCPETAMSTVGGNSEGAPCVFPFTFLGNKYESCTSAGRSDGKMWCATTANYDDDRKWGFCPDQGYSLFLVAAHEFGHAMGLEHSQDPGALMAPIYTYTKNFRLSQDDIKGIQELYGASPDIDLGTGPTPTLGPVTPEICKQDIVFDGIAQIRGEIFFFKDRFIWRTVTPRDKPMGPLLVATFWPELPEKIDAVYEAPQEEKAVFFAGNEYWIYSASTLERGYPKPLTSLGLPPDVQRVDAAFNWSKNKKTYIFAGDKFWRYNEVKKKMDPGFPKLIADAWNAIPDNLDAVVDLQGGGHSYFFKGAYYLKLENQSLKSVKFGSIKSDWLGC
# methodDescription: biochemical
# measurementConditions: MMP-2 IC50 (nM)
Returns: string. Value is met if measured IC50 is below 500 nM, and not met if it is greater than or equal to it.

IN: Does this compound meet the criterion IC50 < 500 nM? O=C(NO)C1(S(=O)(=O)c2ccc(Oc3ccc(C(F)(F)F)cc3)cc2)CCN(C2CC2)CC1 [Example 271]
OUT: met

IN: Does this compound meet the criterion IC50 < 500 nM? COc1ccc(C(=O)N2CCN(c3ccc(S(=O)(=O)C4(C(=O)NO)CCOCC4)cc3)CC2)cc1
OUT: not met

IN: Does this compound meet the criterion IC50 < 500 nM? C[C@@H]1CN(C(=O)C2CCN(c3ccc(S(=O)(=O)C4(C(=O)NO)CCOCC4)cc3)CC2)C[C@H](C)N1
OUT: not met

IN: Does this compound meet the criterion IC50 < 500 nM? O=C(C1CCN(c2ccc(S(=O)(=O)C3(C(=O)NO)CCOCC3)cc2)CC1)N1CCN(c2cnccn2)CC1
OUT: not met

IN: Does this compound meet the criterion IC50 < 500 nM? O=C(NO)C1(S(=O)(=O)c2ccc(Oc3ccc(C(F)(F)F)cc3)cc2)CCN(C2CC2)CC1 [Example 270]
OUT: met

###

# targetOrTestSystem: MMP-13 (Homo sapiens)
# Construct: made in house; host or cells: baculovirus / insect cells
# methodDescription: biochemical
# measurementConditions: recombinant human MMP-13, MCA peptide substrate 4 μM, pH 7.5, room temperature; read-out: MMP-13 IC50
Hi there, I'd appreciate the recorded IC50 for every entry that follows.
Kindly report the value followed by its unit.

IN: Notebook: pull reported IC50 for MMP-13 (Homo sapiens), entry O=C(NO)C1(S(=O)(=O)c2ccc(N3CCC(OCc4cccnc4)CC3)cc2)CCOCC1 [Example 580]
OUT: 37.2 nM

IN: Notebook: pull reported IC50 for MMP-13 (Homo sapiens), entry O=C(NO)C1(S(=O)(=O)c2ccc(Oc3ccc(OC(F)(F)F)cc3)cc2)CCS(=O)(=O)CC1 [Example 157]
OUT: 0.5 nM

IN: Notebook: pull reported IC50 for MMP-13 (Homo sapiens), entry COc1ccc(C2CCN(c3ccc(S(=O)(=O)C4(C(=O)NO)CCOCC4)cc3)CC2)c(OC)c1 [Example 833]
OUT: 11 nM

IN: Notebook: pull reported IC50 for MMP-13 (Homo sapiens), entry COc1ccc(CC(=O)C2CCN(c3ccc(S(=O)(=O)C4(C(=O)NO)CCOCC4)cc3)CC2)cc1 [Example 862]
OUT: 1.7 nM

IN: Notebook: pull reported IC50 for MMP-13 (Homo sapiens), entry O=C(NO)C1(S(=O)(=O)c2ccc(N3CCc4ccccc4C3)cc2)CCN(C2CC2)CC1 [Example 455]
OUT: 6.3 nM

IN: Notebook: pull reported IC50 for MMP-13 (Homo sapiens), entry N#Cc1ccccc1COC1CCN(c2ccc(S(=O)(=O)C3(C(=O)NO)CCOCC3)cc2)CC1 [Example 559]
OUT: 7.2 nM

IN: Notebook: pull reported IC50 for MMP-13 (Homo sapiens), entry COc1ccc(C(=O)C2CCN(c3ccc(S(=O)(=O)C4(C(=O)NO)CCN(C5CC5)CC4)cc3)CC2)cc1 [Example 441]
OUT: 6 nM

###

# targetOrTestSystem: MMP-13 (Homo sapiens)
# Construct: made in house; host or cells: baculovirus / insect cells
# methodDescription: biochemical
# measurementConditions: MMP-13 IC50 (nM), recombinant human MMP-13, MCA peptide substrate 4 μM, pH 7.5, room temperature
Structures can show the parent of a compound that is named as a salt.
Returns: string. Value is Fulfilled if measured IC50 is below 30 nM, and Not fulfilled if it is greater than or equal to it.

IN: Does this compound meet the criterion IC50 < 30 nM? O=C(NO)C1(S(=O)(=O)c2ccc(N3CCC(c4ccccc4-c4ccc(F)cc4)CC3)cc2)CCOCC1
OUT: Not fulfilled

IN: Does this compound meet the criterion IC50 < 30 nM? COCCN1CCC(C(=O)NO)(S(=O)(=O)c2ccc(N3CCC(C(=O)Nc4ccccc4)CC3)cc2)CC1 [Example 236, Monohydrochloride]
OUT: Fulfilled

IN: Does this compound meet the criterion IC50 < 30 nM? O=C(NO)C1(S(=O)(=O)c2ccc(N3CCC(c4cccc5ccccc45)CC3)cc2)CCOCC1
OUT: Fulfilled

IN: Does this compound meet the criterion IC50 < 30 nM? O=C(NO)C1(S(=O)(=O)c2ccc(N3CCC(c4ccc(Cl)cc4)CC3)cc2)CCOCC1
OUT: Fulfilled

IN: Does this compound meet the criterion IC50 < 30 nM? O=C(C1CCN(c2ccc(S(=O)(=O)C3(C(=O)NO)CCOCC3)cc2)CC1)N1CCN(c2cnccn2)CC1
OUT: Fulfilled

###

# targetOrTestSystem: MMP-2 (Homo sapiens, UniProt P08253)
# Construct: made in house; provided by Dr. Gregory Goldberg, Washington University
# methodDescription: biochemical
# measurementConditions: recombinant human MMP-2, MCA peptide substrate 4 μM, pH 7.5, room temperature; read-out: MMP-2 IC50
Hi there, I'd appreciate the recorded pIC50 for every entry that follows.
Just so you know, pIC50 here is -log10 of the concentration in molar units; reply with that number alone.

IN: Query: pIC50; subject: CN(C)CCN(C)C(=O)C1CCN(c2ccc(S(=O)(=O)C3(C(=O)NO)CCOCC3)cc2)CC1
OUT: 5.15

IN: Query: pIC50; subject: O=C(CNCC(F)(F)F)N1CCC(C(=O)NO)(S(=O)(=O)c2ccc(Oc3ccc(C(F)(F)F)cc3)cc2)CC1
OUT: 9.52

IN: Query: pIC50; subject: O=C(c1ccc(F)cc1)C1CCN(c2ccc(S(=O)(=O)C3(C(=O)NO)CCOCC3)cc2)CC1
OUT: 7.46

IN: Query: pIC50; subject: CC(C)COCc1ccc(COC2CCN(c3ccc(S(=O)(=O)C4(C(=O)NO)CCOCC4)cc3)CC2)cc1
OUT: 6.66

###

Hi there, I'd appreciate the recorded IC50 for every entry that follows.
# targetOrTestSystem: MMP-13 (Homo sapiens)
# Construct: made in house; host or cells: baculovirus / insect cells
# methodDescription: biochemical
# measurementConditions: recombinant human MMP-13, MCA peptide substrate 4 μM, pH 7.5, room temperature; read-out: MMP-13 IC50
# Method: The compounds prepared in the manner described in the Examples above were assayed for activity by an in vitro assay. […] Briefly, 4-aminophenylmercuric acetate (APMA) or trypsin-activated MMPs were incubated with various concentrations of the inhibitor compound at room temperature for 5 minutes. […] Inhibition was measured as a reduction in fluorescent intensity as a function of inhibitor concentration, using a Perkin Elmer L550 plate reader. The IC50 values were calculated from those values. […]

IN: Notebook: pull reported IC50 for MMP-13 (Homo sapiens), entry O=C(NO)C1(S(=O)(=O)c2ccc(N3CCC(OCc4ccc(COCC(F)(F)C(F)(F)C(F)(F)C(F)F)cc4)CC3)cc2)CCOCC1
OUT: 139 nM

IN: Notebook: pull reported IC50 for MMP-13 (Homo sapiens), entry O=C(Nc1ccc(OC(F)(F)F)cc1)C1CCN(c2ccc(S(=O)(=O)C3(C(=O)NO)CCOCC3)cc2)CC1
OUT: 15.4 nM

IN: Notebook: pull reported IC50 for MMP-13 (Homo sapiens), entry Cc1cc(C)cc(C(=O)C2CCN(c3ccc(S(=O)(=O)C4(C(=O)NO)CCOCC4)cc3)CC2)c1
OUT: 37 nM

IN: Notebook: pull reported IC50 for MMP-13 (Homo sapiens), entry CONCC(=O)N1CCC(C(=O)NO)(S(=O)(=O)c2ccc(N3CCC(C(=O)N4CC(C)CC(C)C4)CC3)cc2)CC1 (stereo not shown)
OUT: 200 nM
